# test_target: GST tagged PIP4KtypeIIA (Homo sapiens, UniProt P48426)
# Construct: made in house; host or cells: E. coli
# assay_text: ADP-glo kinase assay PIP4K 2A (PIP4KtypeIIA inhibition assay)
# Type: biochemical
# settings: Table 3; compounds listed under IC50 range headings; 10 uM ATP, 0.5 nM PIP4KIIA
Would you kindly list IC50 for each of these molecules?

1. Cc1c(-c2ccc(N3CCCC3=O)cc2)cncc1-c1cn(C)c2ncc([C@H](C)O)cc12 (single isomer, unassigned) [196(S)]	100 to 1000 nM
2. COC(=O)c1cc2c(-c3cncc(-c4ccc(N5CCCC5=O)cc4)c3C)ccnc2[nH]1	10 to 100 nM
3. O=C1CCCN1c1ccc(-c2cncc(-c3ccnc4[nH]ccc34)c2)cc1	2500 to 5000 nM

Consider now this further molecule.
Per the reported GST tagged PIP4KtypeIIA (Homo sapiens, UniProt P48426) data, O=C(NCCc1ccc[nH]1)c1cc2c(-c3cncc(-c4ccc(N5CCCC5=O)cc4)c3)ccnc2[nH]1 has IC50 of 100 to 1000 nM

====

Would you kindly list IC50 for each of these compounds?
Target chain: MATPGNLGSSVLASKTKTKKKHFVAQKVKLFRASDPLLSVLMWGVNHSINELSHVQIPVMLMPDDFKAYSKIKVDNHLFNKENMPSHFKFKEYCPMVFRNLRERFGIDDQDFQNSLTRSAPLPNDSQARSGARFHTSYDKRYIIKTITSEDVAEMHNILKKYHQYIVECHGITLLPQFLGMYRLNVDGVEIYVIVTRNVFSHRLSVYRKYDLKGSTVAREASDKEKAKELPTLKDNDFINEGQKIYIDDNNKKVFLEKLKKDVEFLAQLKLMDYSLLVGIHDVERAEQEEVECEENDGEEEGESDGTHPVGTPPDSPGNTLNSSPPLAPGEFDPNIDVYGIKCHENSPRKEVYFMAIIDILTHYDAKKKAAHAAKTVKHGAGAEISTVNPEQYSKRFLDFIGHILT

Lab note: each compound below needs its IC50 filled in.
1. CN(C)C(=O)c1ccc(-c2cc(-c3ccnc4occc34)cnc2N)nc1
2. Cc1cnc2[nH]cc(-c3cncc(-c4ccc(N5CCCC5=O)cc4)c3)c2c1
3. O=C(Nc1ccncc1)c1cc2c(-c3cncc(-c4ccc(N5CCCC5=O)cc4)c3)ccnc2[nH]1
4. COC(=O)c1cc2c(-c3cncc(-c4ccc(-c5nncn5C(C)C)cc4)c3)ccnc2[nH]1
5. Cn1cc(-c2cncnc2)c2cc(-c3cncc(-c4ccc(N5CCCC5=O)cc4)c3)cnc21
6. O=C1CCCN1c1ccc(-c2cncc(-c3ncnc4n[nH]cc34)c2)cc1
7. CN(C)C(=O)c1ccc(-c2cncc(-c3cnc4[nH]ccc4c3)c2)cc1
8. CN(C)C(=O)c1ccc(-c2cncc(-c3c[nH]c4ncc(Cl)cc34)c2)cc1

Ans:
100 to 1000 nM
5 to 100 nM
1000 to 2500 nM
5 to 100 nM
5 to 100 nM
100 to 1000 nM
100 to 1000 nM
5 to 100 nM

Lab note: each compound below needs its IC50 filled in.
1. CN(C)C(=O)c1ccc(-c2cc(-c3ccnc4cc(C#N)ccc34)cnc2N)nc1
2. O=C1Cc2c(-c3cncc(-c4ccc(N5CCCC5=O)cc4)c3)ccnc2N1
3. CN(CC1CCCNC1)C(=O)c1ccc(-c2cncc(-c3ccncc3)c2)cc1 (centres unmarked)
4. CC(C)c1cnnn1-c1ccc(-c2cncc(-c3ccnc4c3cc3n4CCN(c4ccccn4)C3=O)c2)cc1
5. CN(C)C(=O)c1ccc(-c2cc(-c3ccnc4ccc(C#N)cc34)cnc2N)nc1

Ans:
1: 1000 to 2500 nM; 2: 100 to 1000 nM; 3: < 5000 nM; 4: 5 to 100 nM; 5: 100 to 1000 nM

Lab note: each compound below needs its IC50 filled in.
1. Cc1cc(N2CCCC2=O)ccc1-c1cncc(-c2ccncc2)c1
2. CN(CC1CCNCC1)C(=O)c1ccc(-c2cncc(-c3ccncc3)c2)cc1
3. CN(C)C(=O)c1ccc(-c2cc(-c3ccnc4c3ccn4C)cnc2N)nc1
4. Nc1ncc(-c2c[nH]c3ncc(Cl)cc23)cc1-c1ccc(N2CCCC2=O)cn1

Ans:
< 5000 nM
< 5000 nM
100 to 1000 nM
5 to 100 nM

====

Target sequence: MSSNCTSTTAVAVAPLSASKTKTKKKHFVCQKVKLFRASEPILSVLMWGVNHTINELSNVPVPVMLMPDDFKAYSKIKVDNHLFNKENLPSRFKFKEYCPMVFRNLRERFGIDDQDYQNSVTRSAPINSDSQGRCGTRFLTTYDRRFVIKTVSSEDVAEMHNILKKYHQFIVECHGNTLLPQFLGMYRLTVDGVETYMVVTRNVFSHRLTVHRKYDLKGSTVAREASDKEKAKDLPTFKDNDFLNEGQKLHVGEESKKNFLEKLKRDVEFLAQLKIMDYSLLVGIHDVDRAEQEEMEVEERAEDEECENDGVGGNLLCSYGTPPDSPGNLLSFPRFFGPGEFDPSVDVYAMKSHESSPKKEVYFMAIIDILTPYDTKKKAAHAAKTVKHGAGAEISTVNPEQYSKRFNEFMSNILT
endpoint_name: IC50

Record excerpt, results attached:
1) C[C@@H]1CC(=O)N(c2ccc(-c3cncc(-c4ccnc5c4cc4n5CCN(C)C4=O)c3)cc2)C1	10 to 100 nM
2) COC(=O)c1cc2c(-c3cncc(-c4ccc(N5CCCC5=O)cc4)c3)c(Cl)cnc2[nH]1	100 to 1000 nM
3) CC(O)c1cnc2[nH]cc(-c3cncc(-c4ccc(C(=O)N(C)C)cc4)c3)c2c1 (stereo not shown)	100 to 1000 nM

The compound Cc1[nH]nc2nccc(-c3cncc(-c4ccc(N5CCCC5=O)cc4)c3)c12 showed IC50 equal to 100 to 1000 nM

====

# test_target: PIP4K2A (full length protein, SignalChem) (Homo sapiens, UniProt P48426)
# Construct: 4 nM PIP4K2A (full length protein, SignalChem); purchased SignalChem
# Sequence (P48426 1-406): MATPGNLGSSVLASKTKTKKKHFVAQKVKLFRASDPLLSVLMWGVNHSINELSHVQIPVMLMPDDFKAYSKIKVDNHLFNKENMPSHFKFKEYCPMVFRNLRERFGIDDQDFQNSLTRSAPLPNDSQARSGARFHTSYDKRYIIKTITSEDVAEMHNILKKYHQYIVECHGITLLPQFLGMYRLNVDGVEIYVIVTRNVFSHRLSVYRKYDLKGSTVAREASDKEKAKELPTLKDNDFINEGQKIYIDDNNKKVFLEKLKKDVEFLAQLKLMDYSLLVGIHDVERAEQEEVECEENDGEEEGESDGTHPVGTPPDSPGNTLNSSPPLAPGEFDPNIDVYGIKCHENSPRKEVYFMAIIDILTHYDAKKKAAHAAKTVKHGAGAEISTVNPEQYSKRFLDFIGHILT
# assay_text: Kinase Assay PIP4K2 A (Sprint); ADP-Glo biochemical assay
# settings: Table 2; compounds listed under IC50 range headings
endpoint_name: IC50

Record excerpt, results attached:
1) O=C(NCc1nc2ccccc2[nH]1)c1cc2c(-c3cncc(-c4ccc(N5CCCC5=O)cc4)c3)ccnc2[nH]1	1 to 2.5 µM
2) Cc1ccc2c(c1)N(C(=O)c1cc3c(-c4cncc(-c5ccc(N6CCCC6=O)cc5)c4)ccnc3[nH]1)CCO2	0.005 to 0.1 µM
3) CN(C)C(=O)c1ccc(-c2cc(-c3[nH]nc4ncncc34)cnc2N)nc1	0.1 to 1 µM
4) COCCNC(=O)c1cc2c(-c3cncc(-c4ccc(N5CCCC5=O)cc4)c3)ccnc2o1	0.005 to 0.1 µM
5) O=C1CCCN1c1ccc(-c2cncc(-c3ccnc4[nH]ncc34)c2)cc1	0.005 to 0.1 µM
6) CN1CCn2c(cc3c(-c4cncc(-c5ccc(N6CCCCC6=O)cc5)c4)ccnc32)C1=O	0.1 to 1 µM
7) Cc1c[nH]c2nccc(-c3cnc(N)c(-c4ccc(N5CCCC5=O)cc4)c3)c12	0.1 to 1 µM
8) CN(C)C(=O)c1ccc(-c2cc(-c3ccnc4cccc(C#N)c34)cnc2N)nc1	< 5 µM

Lab note: each compound below needs its IC50 filled in.
1. CC(C)(O)c1cnc2[nH]c(C3CC3)c(-c3cncc(-c4ccc(N5CCCC5=O)cc4)c3)c2c1
2. CN(C)C(=O)c1ccc(-c2cc(-c3cc(N)ncn3)cnc2N)nc1
3. CC(C)n1cnnc1-c1ccc(-c2cc(-c3ccnc4c3cc3n4CCN(CC4CC4)C3=O)cnc2N)cc1
4. Cn1ncc2c(-c3cncc(-c4ccc(N5CCCC5=O)cc4)c3)c[nH]c(=O)c21
5. CN(C)C(=O)c1ccc(-c2cncc(-c3ccncc3)c2)cc1
6. CN1CCn2c(cc3c(-c4cncc(-c5ccc(C(=O)N6CCCCC6)cc5)c4)ccnc32)C1=O
7. CN(C)C(=O)c1ccc(-c2cc(-c3ccnc4nc[nH]c34)cnc2N)nc1

Ans:
1. 0.1 to 1 µM
2. 0.1 to 1 µM
3. 0.1 to 1 µM
4. 0.005 to 0.1 µM
5. < 5 µM
6. 0.1 to 1 µM
7. 0.1 to 1 µM

Per the reported PIP4K2A (full length protein, SignalChem) (Homo sapiens, UniProt P48426) data, CN(C)C(=O)c1ccc(-c2cc(-c3ccnc4[nH]c(C(=O)NCc5ccccc5)cc34)cnc2N)nc1 has IC50 of 0.005 to 0.1 µM
